Each entry below carries its reported log2 fold change of degron read counts.
Molecular target: T1, CRBN, Q96SW2;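 also: pooled lentiviral library of zinc finger degron-EGFP fusions in mCherry-positive Jurkat cells, FACS-sorted after compound exposure, with degron abundance counted by next-generation sequencing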
T1 chain: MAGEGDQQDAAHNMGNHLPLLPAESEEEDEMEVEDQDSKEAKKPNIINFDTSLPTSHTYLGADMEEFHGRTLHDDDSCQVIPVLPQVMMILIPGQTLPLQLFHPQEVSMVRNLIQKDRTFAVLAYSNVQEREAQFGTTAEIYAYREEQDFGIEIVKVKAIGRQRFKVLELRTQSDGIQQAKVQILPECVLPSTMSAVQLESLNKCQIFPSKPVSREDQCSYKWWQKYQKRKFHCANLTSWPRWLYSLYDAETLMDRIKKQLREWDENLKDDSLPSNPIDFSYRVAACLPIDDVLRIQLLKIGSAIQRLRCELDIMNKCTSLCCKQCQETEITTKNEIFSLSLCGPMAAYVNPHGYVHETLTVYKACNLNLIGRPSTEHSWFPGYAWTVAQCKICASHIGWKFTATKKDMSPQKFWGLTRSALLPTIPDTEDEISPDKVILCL
Assay: log2 fold change of degron read counts, EGFP-low vs EGFP+ sorted cells (limma voom), compound-induced degradation; higher = more compound-induced degradation of the degron-EGFP fusion; degrons are variants of IKZF1/3 zinc finger 2; compound dose not given here
Settings: Jurkat; 18 h; compound: compound 33 (diphenyl IMiD analogue)
In all, about 8,300 sequences were measured (“log2 fold change of degron read counts, EGFP-low vs EGFP+ sorted cells (limma voom), compound-induced degradation”: median about -1.1, highest 2% from about 3.2 on). What follows is part of a selection rich in the highest values, with near analogues and random picks from the rest.
// keep it numeric: no unit symbol after the value

Example entries begin here.
residue_string: FSCNICGACFTQKGNLLRHIKL [46F_47S_49N_50I_52G_53A_54C_55F_67L_, Q9UKT9]
quantity_kind: log2 fold change of degron read counts
measurement: 2.11

residue_string: FLCNVCGAQFTQKGNLLRHIKL [46F_47L_49N_50V_52G_53A_54Q_55F_67L_, Q9UKT9]
quantity_kind: log2 fold change of degron read counts
measurement: -0.00793

residue_string: FDCPICGARFTQKGNLLRHIKL [46F_47D_49P_50I_52G_53A_54R_55F_67L_, Q9UKT9]
quantity_kind: log2 fold change of degron read counts
measurement: 1.6

residue_string: FACPICGARFTQKGNLLRHIKL [46F_47A_49P_50I_52G_53A_54R_55F_67L_, Q9UKT9]
quantity_kind: log2 fold change of degron read counts
measurement: -0.174

residue_string: FKCPICGARFTQKGNLLRHIKL [46F_47K_49P_50I_52G_53A_54R_55F_67L_, Q9UKT9]
quantity_kind: log2 fold change of degron read counts
measurement: -2.42

Input FRCNICGACFTQKGNLLRHIKL [46F_47R_49N_50I_52G_53A_54C_55F_67L_, Q9UKT9] . Output log2 fold change of degron read counts: 0.532

Input FFCPICGARFTQKGNLLRHIKL [46F_47F_49P_50I_52G_53A_54R_55F_67L_, Q9UKT9] . Output log2 fold change of degron read counts: 1.51

Input FWCNICGACFTQKGNLLRHIKL [46F_47W_49N_50I_52G_53A_54C_55F_67L_, Q9UKT9] . Output log2 fold change of degron read counts: 1.98

Input FCCPICGARFTQKGNLLRHIKL [46F_47C_49P_50I_52G_53A_54R_55F_67L_, Q9UKT9] . Output log2 fold change of degron read counts: 1.8

Input FICPICGRGFTQKGNLLRHIKL [46F_47I_49P_50I_52G_53R_54G_55F_67L_, Q9UKT9] . Output log2 fold change of degron read counts: -0.776

Input FTCDVCGARFTQKGNLLRHIKL [46F_47T_49D_50V_52G_53A_54R_55F_67L_, Q9UKT9] . Output log2 fold change of degron read counts: 0.304

Input FICNQCGHFFTQKGNLLRHIKL [46F_47I_49N_50Q_52G_53H_54F_55F_67L_, Q9UKT9] . Output log2 fold change of degron read counts: -2.06

Input FGCEVCGAKFTQKGNLLRHIKL [46F_47G_49E_50V_52G_53A_54K_55F_67L_, Q9UKT9] . Output log2 fold change of degron read counts: -1.12

Input FVCEICGAFFTQKGNLLRHIKL [46F_47V_49E_50I_52G_53A_54F_55F_67L_, Q9UKT9] . Output log2 fold change of degron read counts: 1.09

Input FQCNICGACFTQKGNLLRHIKL [46F_47Q_49N_50I_52G_53A_54C_55F_67L_, Q9UKT9] . Output log2 fold change of degron read counts: 1.65
